Test system: RXF 393 renal
EXPERIMENT: NCI tumour cell line growth inhibition, 48 h
Exercise: state measured TGI for each of the compounds provided.

Query: TGI; subject: `Cc1cn(CCCC2=NCCCN2)c(=O)[nH]c1=O`
> 100 µM

Requested field: TGI. Item: `COc1cc(/C=C/C(=O)c2ccc(Nc3nc(NCCO)nc(N4CCOCC4)n3)cc2)cc(OC)c1OC`
3.23 µM

Query (compound): `C=CC(=O)C#CC#CC/C=C\CCCCCCC` ; field requested: TGI
> 19.5 µM

Find the recorded TGI belonging to `Cc1cc(S(=O)(=O)n2cc[nH]c2=O)c(SCCCN(C)C)cc1Cl` and report it.
> 100 µM

Any idea what TGI was measured for Cc1cn(C2CC(OC3CCCCO3)C(CO)O2)c(=O)[nH]c1=O (stereo not given) ?
> 100 µM

----------
System: NCI-H23 lung
EXPERIMENT: NCI tumour cell line growth inhibition, 48 h
Consider the following compounds; for each one, report its TGI.
Write the value in µM as a bare number.

Item `CN(CCCN=C=S)CCCN1c2ccccc2CCc2ccccc21` with NCI-H23 lung - TGI?
3.11

GET /values?readout=TGI&system=NCI-H23 lung&item= `O=C1C=CC(=O)C(CNc2ccc(C(=O)OC34CC5CC(CC(C5)C3)C4)cc2)=C1Br`
23.9

----------
Test system: M14 melanoma
EXPERIMENT: NCI tumour cell line growth inhibition, 48 h
READOUT NAME: TGI (µM)
Numeric only. Scale: µM

Form field: TGI recorded for `C=C(CBr)CCCOCc1ccccc1` with M14 melanoma (enter value)
31.9

Request: TGI, test system M14 melanoma, entry `COc1ccc2[nH]c3c(C)c4ccncc4c(C)c3c2c1`
1.63

----------
Tested on: SK-MEL-5 melanoma
EXPERIMENT: NCI tumour cell line growth inhibition, 48 h
READOUT NAME: TGI (µM)
I only need the number, in µM, no unit after it.

Item CC1CC[C@@]23CCC4(C)[C@@](C=CC5[C@@]6(C)CCC(=O)C(C)(C)C6CC[C@]54C)(OC2=O)[C@@H]3[C@H]1C (stereo partly specified) has what recorded TGI?
28.5

Looking for the measured TGI of O=C1/C(=C\c2cccc(Oc3ccccc3)c2)SC(c2ccccc2)N1c1ccccc1Cl (stereo unspecified) , can you help?
29.8

Report TGI for `Cc1cc(C(=O)NCCN(C)C)c2nc3ccccc3cc2c1` please.
3.6

Can you look up the measured TGI of `CCOc1cc(F)c([N+](=O)[O-])cc1[N+](=O)[O-]` for me?
8.4

Look up TGI for this molecule: C=C1CC2(CC(c3ccccc3OC)OC(c3ccccc3OC)C2)OC1=O (stereo unspecified)
7.05

Dear colleague, I am looking for the recorded TGI of the following molecule: c1cc[n+](C2c3ccccc3C([n+]3ccccc3)c3ccccc32)cc1 (stereo unspecified)
23.2

# TGI lookup, item CC(C)(C)OC(=O)C1CCC/C1=N/Nc1ccc([N+](=O)[O-])cc1[N+](=O)[O-] (stereo unspecified)
29.3

----------
Please go through the items and note down their TGI.
System: K-562 leukemia
EXPERIMENT: NCI tumour cell line growth inhibition, 48 h
Where a SMILES comes first, the peptide text is derived from it. Bridges are numbered along the chain shown (N, C = ends). [ ]: non-standard residue; d: D form. The star is where a group is joined. ξ: configuration not given here. X26 = O=C(/C=C/C=C/C=C/C=C/C=C/C(=O)*)NC1=C(O)CCC1=O; Pro(4R-Me) = C[C@H]1CN[C@H](C(=O)O)C1; NMeA = CN[C@@H](C)C(=O)O; ξF = NC(Cc1ccccc1)C(=O)O; ξA = CC(N)C(=O)O

// query TGI value for entry `O=C(/C=C/c1ccc2ccccc2c1)NCc1ccc(C(=O)NCc2ccccc2)cc1`
> 31.6 µM

Which TGI value is on record for `O=C(c1ccco1)c1nc2ccc(Cl)cc2[n+]([O-])c1C(F)(F)F` ?
> 100 µM

Bench note: what TGI did `CCCCCC(=O)Nc1n[nH]nc1C#N` show?
> 100 µM

Give its TGI value. Item: COc1ccc(C(=O)N2c3ccccc3N(C)n3cccc3C2CC(=O)O)cc1 (stereo not drawn)
> 100 µM

Can you share its TGI? I mean this compound: CC1=C(C(=O)Nc2ccc(F)c(Cl)c2)C(c2cccc(Cl)c2)NC(=S)N1 (stereo not drawn)
28.8 µM

Data request, read-out TGI, for CCOC(=O)C1OC(=O)CC1C1(C(=O)OCC)C=CC(=O)O1 (stereo not drawn)
> 100 µM

Which TGI reading was recorded for the compound `OCCCC(O)(c1ccccc1)c1ccccc1` ?
> 100 µM

Recorded TGI for `Cc1nc2ccccc2nc1NNc1ccccc1` , please?
74.5 µM

Look up TGI: `O=C(Nc1ncc(Cc2ccccc2)s1)c1sc2ccccc2c1Cl`
> 100 µM

Which TGI is reported for this compound? `Oc1c(Br)cc(Br)c2ccc(Cn3cc(-c4ccc(C(F)(F)F)cc4)nn3)nc12`
11.8 µM

For `CN[C@@H](C)C(=O)N[C@H]1CCS[C@H]2CC(C)(C)[C@@H](C(=O)N[C@H]3c4ccccc4C[C@H]3OCC#CC#CCO[C@@H]3Cc4ccccc4[C@@H]3NC(=O)[C@H]3N4C(=O)[C@@H](NC(=O)[C@H](C)NC)CCS[C@H]4CC3(C)C)N2C1=O` , what is its reported TGI?
> 33.4 µM

May I ask what TGI has been recorded for `CCOc1cc(F)c([N+](=O)[O-])cc1[N+](=O)[O-]` ?
57 µM

What measured TGI goes with CC1NC(=O)[C@H](C)N(C)C(=O)[C@@H]2CCCN2C(=O)[C@@H](NC(=O)C(Cc2ccccc2)NC(=O)/C=C/C=C/C=C/C=C/C=C/C(=O)NC2=C(O)CCC2=O)COC(=O)[C@@H]2C[C@@H](C)CN2C1=O (stereo partly drawn) (X26-[ξF]SP[NMeA][ξA][Pro(4R-Me)]; ester 2-C) ?
> 100 µM

This collection of values is drawn from PubChem BioAssay (NCI).
